Provide the reported polymerase ribozyme fitness (log ratio) of each item.
B1: TPR 5TU (parent)
chain: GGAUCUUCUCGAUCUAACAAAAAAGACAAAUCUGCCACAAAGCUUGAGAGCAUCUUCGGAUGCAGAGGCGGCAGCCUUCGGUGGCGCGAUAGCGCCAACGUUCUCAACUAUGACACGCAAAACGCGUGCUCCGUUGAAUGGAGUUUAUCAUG

# Variants of: B1
# protocol_summary: polymerase ribozyme fitness, log enrichment relative to wild type (log ratio); higher = more active; in vitro selection for triplet polymerase activity
This sample holds only a part of the variants without activity.
Just the number, please.

Entry A39U G84C ; polymerase ribozyme fitness (log ratio) = -3.33

Summary for this variant, U6G C57G C85U A98U : polymerase ribozyme fitness (log ratio) is -1.17

Lab note: G48A C54A U55G G58U A97G gave polymerase ribozyme fitness (log ratio) of -3.22

The recorded polymerase ribozyme fitness (log ratio) for entry G92U G136C equals -3.44

Field polymerase ribozyme fitness (log ratio) (entry C27G C93U G141C ) reads -3.68

Recorded result, C95A C96A , polymerase ribozyme fitness (log ratio): -2.33

Entry U6C C54U C76U ; polymerase ribozyme fitness (log ratio) = -2.15

Form field polymerase ribozyme fitness (log ratio), entry C93A A142U : -3.16

// G83U G94U C116A C132G G140U : polymerase ribozyme fitness (log ratio) value = -3.11

The measured values listed here are drawn from the RNAGym collection of RNA variant scans (doi:10.1073/pnas.2313332121).
